# PROTOCOL: probe aLefty2 binding to arrayed compounds – biochemical, biotinylated probe, 635/667 nm fluorescence, primary screen (AID 1094);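 also: score merges spot fluorescence near 667 nm with spot signal-to-noise ratio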
# EXPERIMENTAL_CONTEXT: small-molecule microarray, higher = more signal
The label depends only on composite z-score: YES if it is at least 0.05, NO if it is smaller.

COMPOUND: COc1ccc(CCNC(=O)[C@@H]2c3ccccc3C(=O)N(Cc3ccccc3)[C@H]2c2ccc(CO)cc2)cc1
LABEL_VALUE: YES
//
COMPOUND: NCCCCCCNC(=O)[C@H]1C[C@H]2C(=O)N3CCC[C@H]3C(=O)N2[C@H]1c1ccc(O)cc1
LABEL_VALUE: NO
//
COMPOUND: COc1ccc([Si](C)(C)[C@H]2[C@H](CCO)O[C@@]3(C(=O)N(Cc4cccc(N5CCOC5=O)c4)c4ccccc43)[C@@H]2C)cc1
LABEL_VALUE: YES
//
COMPOUND: CC1=C2[C@@H](CCc3ccccc3)OB(O)C[C@@H]2[C@@H]2C(=O)C=CC(=O)[C@@H]2C1
LABEL_VALUE: NO
//
COMPOUND: Cc1ccc(S[C@]2(C(=O)NCC(C)C)CC(=O)N(C3CCCCC3)[C@@H]2c2ccc(CO)cc2I)cc1
LABEL_VALUE: YES
//
COMPOUND: O=C1O[C@H](c2ccccc2)[C@H](c2ccccc2)N2[C@H]1[C@@H](C(=O)N1CCCCCCC1)[C@]1(C(=O)Nc3ccc(C#CCCO)cc31)[C@H]2c1ccc(OCCO)cc1
LABEL_VALUE: YES
//
COMPOUND: C=CCC(OC(C)=O)[C@@H]1[C@@H](N(Cc2ccc(-c3ccccc3)cc2)C(=O)c2cccc3ccccc23)c2cc(OCCCO)ccc2N1C(=O)c1ccc2ccccc2n1 (some centres not stated)
LABEL_VALUE: NO

----------
Each item that follows carries a reported z-score.
# PROTOCOL: FRG1 expression reporter modulators in myotubes – cell-based, C2C12 myotubes, firefly/Renilla luciferase, luminescence, FRG1 inhibition for FSHD, primary screen (AID 1084)
# EXPERIMENTAL_CONTEXT: FRG1 promoter luciferase, higher = more signal, called active from +8 up or from −8 down
Active and inactive are the calls of the source.
MEASURED_ATTRIBUTE: z-score

MOLECULE: COC(=O)[C@@]1(Cc2ccccc2)[C@H]2c3cc(C(=O)N4CCCC4)n(CCO)c3C[C@H]2CN1C(=O)c1ccccc1
RESULT_VALUE: -0.292 (inactive)

MOLECULE: O=C1OCCC=C[C@H]2OC34C=CCN(Cn5nnc6ccccc65)C(=O)[C@H]3N(CCCCCO)C(=O)[C@@H]4C12 (some centres undefined)
RESULT_VALUE: -0.21 (inactive)

MOLECULE: O=C1C[C@@](C(=O)NCc2ccccc2)(c2ccc([N+](=O)[O-])cc2)[C@@H](c2ccc(CO)cc2I)N1C1CCCCC1
RESULT_VALUE: -0.524 (inactive)

MOLECULE: O=C1N(CCS(=O)(=O)c2ccccc2)c2ccccc2[C@H]2OC(c3ccc(OCCCO)cc3)=N[C@@]12CCS(=O)(=O)c1ccccc1
RESULT_VALUE: -0.938 (inactive)

----------
# ASSAY_TARGET: Follistatin (Homo sapiens)
# PROTOCOL: FST protein binding to printed compounds – biochemical, small-molecule microarray, 635/667 nm fluorescence, primary screen (AID 1132)
# EXPERIMENTAL_CONTEXT: 635 nm fluorescence, higher = more signal
Quick list: composite z-score per entry.
MEASURED_ATTRIBUTE: composite z-score

MOLECULE: O=C1C[C@@](C(=O)NCc2ccccc2)(c2ccc([N+](=O)[O-])cc2)[C@@H](c2ccc(CO)cc2I)N1C1CCCCC1
MEASURED_ATTRIBUTE: composite z-score
RESULT_VALUE: 1.43
//
MOLECULE: CC(C)C[C@@H]1NC(=O)[C@@H]2C[C@H](C(=O)NCCCC[N+](C)(C)C)[C@H](c3cccc(OCCO)c3)N2C1=O
MEASURED_ATTRIBUTE: composite z-score
RESULT_VALUE: 1.45
//
MOLECULE: CCOC(=O)C1=CC[C@@H](c2ccccc2)N(S(=O)(=O)c2ccc(C)cc2)[C@H]1C=C(C)C
MEASURED_ATTRIBUTE: composite z-score
RESULT_VALUE: 0.97
//
MOLECULE: COc1ccc([Si](C)(C)[C@@H]2[C@@H](CC(=O)N(CCO)Cc3ccccc3)O[C@]3(C(=O)N(C)c4c(Br)cc(C)cc43)[C@H]2C)cc1
MEASURED_ATTRIBUTE: composite z-score
RESULT_VALUE: 1.08
//
MOLECULE: OCc1ccc(-c2cc[n+](Cc3cccc(OC(F)(F)F)c3)cc2)cc1
MEASURED_ATTRIBUTE: composite z-score
RESULT_VALUE: 1.45
//
MOLECULE: C=CCC(OC(C)=O)[C@@H]1[C@@H](N(Cc2cc3ccccc3o2)C(=O)Cc2ccc(OC)cc2)c2cc(OCCCO)ccc2N1C(=O)c1ccc(-c2ccccc2)cc1 (some centres not stated)
MEASURED_ATTRIBUTE: composite z-score
RESULT_VALUE: 0.352
//
MOLECULE: Cc1ccc(S[C@]2(C(=O)O)CC(=O)N(C3CCCCC3)[C@@H]2c2ccc(CO)cc2)cc1
MEASURED_ATTRIBUTE: composite z-score
RESULT_VALUE: 0.271

----------
# PROTOCOL: probe aLAP1 signal on lysate-treated microarray – cell lysate, small-molecule microarray, COS7 lysate, primary screen (AID 1124);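 also: lysate comes from COS7 cells expressing LAP1 and is applied at 0.3 µg/mL; score merges spot fluorescence near 667 nm with signal-to-noise over triplicate slides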
# EXPERIMENTAL_CONTEXT: probe aLAP1, fluorescence, higher = more signal
// reported composite z-score per item

MOLECULE: COc1ccc([Si](C)(C)[C@@H]2[C@@H](CC(=O)N(CCO)Cc3ccccc3)O[C@]3(C(=O)N(Cc4ccc(N5CCOC5=O)cc4)c4ccccc43)[C@H]2C)cc1
composite z-score: -0.211

MOLECULE: NC(=O)NCC#Cc1ccc2c(c1)[C@]1(C(=O)N2)[C@H](c2ccc(OCCO)cc2)N2[C@H](c3ccccc3)[C@H](c3ccccc3)OC(=O)[C@H]2[C@@H]1C(=O)N1CCN(c2ncccn2)CC1
composite z-score: 0.332

MOLECULE: CCC[C@@H]1C[C@@]1(CCC)[C@@H](NC(=O)c1cccs1)c1ccc(Cl)cc1
composite z-score: -0.199

MOLECULE: CN1C(=O)C2C=CC(C(O)C3CCCCC3)N(N(c3ccccc3)c3ccccc3)C2C1=O (centres undefined)
composite z-score: 1.21

----------
# Tested on: Noggin (protein binding on small-molecule microarray)
# PROTOCOL: small molecules binding Noggin protein – biochemical, 635/667 nm fluorescence, primary screen (AID 1095);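 also: score merges 667 nm feature fluorescence with signal to noise over triplicate slides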
# EXPERIMENTAL_CONTEXT: 635 nm fluorescence, higher = more signal
composite z-score below 0.1 gives 0; composite z-score at or above it gives 1.

MOLECULE: C=C(COC)/C(=C/C[C@@H](OC(=O)c1ccncc1)c1cccc(OCCO)c1)c1cc(C(=O)OC)ccc1OC
LABEL_VALUE: 1

MOLECULE: CCOC(=O)C1=CC[C@@H](c2ccc(N(CC)CC)cc2)N(S(=O)(=O)c2ccc(C)cc2)[C@H]1c1ccc([N+](=O)[O-])cc1
LABEL_VALUE: 0

MOLECULE: COCCOC(=O)N1C(=O)[C@@]2(c3cc(C#CC4(O)CCCCCC4)ccc31)[C@H](C(=O)N1CCc3cc(OC)c(OC)cc3C1)[C@H]1C(=O)O[C@H](c3ccccc3)[C@H](c3ccccc3)N1[C@@H]2c1ccccc1OCCO
LABEL_VALUE: 1

MOLECULE: C[N+](C)(C)CCCCCCNC(=O)[C@@H]1C[C@@H]2C(=O)NCC(=O)N2[C@@H]1c1cccc(OCCO)c1
LABEL_VALUE: 1

MOLECULE: COc1cc2c(cc1OC)CN(C(=O)[C@@H]1[C@H]3C(=O)O[C@H](c4ccccc4)[C@H](c4ccccc4)N3[C@H](c3ccc(O)cc3)[C@@]13C(=O)Nc1ccc(C#CCNC(N)=O)cc13)CC2
LABEL_VALUE: 1

MOLECULE: CCCCC=C[C@@H](NC(=O)CCc1ccccc1)c1ccccc1
LABEL_VALUE: 0

MOLECULE: O=c1c2ccc(Br)cc2nc(-c2ccccc2)n1Cc1cccc(O)c1
LABEL_VALUE: 0

MOLECULE: COc1ccc(CCNC(=O)[C@@H]2c3ccccc3C(=O)N(Cc3ccccc3)[C@H]2c2ccc(CO)cc2)cc1
LABEL_VALUE: 1

MOLECULE: CC(C)(C)N1CC=CC23O[C@@H]4C=CCCOC(=O)C4[C@H]2C(=O)N(CCCO)[C@@H]3C1=O (stereo partly drawn)
LABEL_VALUE: 0

MOLECULE: CN1C(=O)C2C=CC(C(O)COCc3ccccc3)N(Nc3ccccc3)C2C1=O (stereo not drawn)
LABEL_VALUE: 1

MOLECULE: COCC(=C=CC[C@@H](O)c1ccccc1OCCO)C[C@@H](O)COCc1ccccc1
LABEL_VALUE: 1

MOLECULE: COCCCNC(=O)[C@]1(Cc2ccccc2CN=[N+]=[N-])N=C(c2ccc(OCCCO)cc2)O[C@@H]1c1ccccc1CN=[N+]=[N-]
LABEL_VALUE: 1

MOLECULE: CO[C@H]1O[C@H](CO)[C@@H](OC(=O)Nc2ccc(C(F)(F)F)cc2)[C@H](OC(=O)Nc2ccccc2)[C@H]1OC(=O)Nc1ccccc1
LABEL_VALUE: 1

MOLECULE: CN(C)CCCNC(=O)[C@@]1(Cc2ccccc2I)c2ccccc2C(=O)N(Cc2ccccc2Cl)[C@H]1c1ccc(CO)cc1
LABEL_VALUE: 0

MOLECULE: C=CC[C@@]1(C(=O)NCCN2CCOCC2)N=C(c2ccc(OCCCO)cc2)O[C@@H]1c1ccccc1
LABEL_VALUE: 1

MOLECULE: COCCOC(=O)N1C(=O)[C@@]2(c3cc(C#CCNC(N)=O)ccc31)[C@H](C(N)=O)[C@H]1C(=O)O[C@H](c3ccccc3)[C@H](c3ccccc3)N1[C@@H]2c1ccc(OCCO)cc1
LABEL_VALUE: 1

MOLECULE: C=CCC(OC(C)=O)[C@@H]1[C@@H](N(Cc2ccc(-c3cccc(C(F)(F)F)c3)o2)C(=O)c2cccc3ccccc23)c2cc(OCCCO)ccc2N1C(=O)c1ccc(-c2ccccc2)cc1 (stereo partly drawn)
LABEL_VALUE: 1

MOLECULE: C=CCC(OC(C)=O)[C@@H]1[C@@H](N(Cc2cccc3ccccc23)C(=O)Cc2ccc(F)cc2)c2cc(OCCCO)ccc2N1C(=O)Cc1ccc(OC)cc1 (stereo partly drawn)
LABEL_VALUE: 1

MOLECULE: COC(=O)[C@]1(Cc2ccccc2CN=[N+]=[N-])N=C(c2ccc(OCCCO)cc2)O[C@@H]1c1ccccc1
LABEL_VALUE: 0

MOLECULE: C[N+](C)(C)CCCCNC(=O)[C@H]1C[C@H]2C(=O)NCC(=O)N2[C@H]1c1ccc(O)cc1
LABEL_VALUE: 1

MOLECULE: CCOC(=O)C[C@H]1[C@H](OC(=O)c2ccc(C(=O)c3ccccc3)cc2)[C@@H](NC(=O)C2CCCCC2)c2cc(OCCCO)ccc2N1C(=O)Cc1ccc(OC)cc1
LABEL_VALUE: 1

MOLECULE: CCN(CC)c1ccc(N2CC=CC34O[C@@H]5/C=C\CCCOC(=O)C5[C@H]3C(=O)N(CCCCCCO)[C@@H]4C2=O)cc1 (stereo partly drawn)
LABEL_VALUE: 0

MOLECULE: COC(=O)[C@@]1(Cc2ccccc2)[C@H]2c3cc(C(=O)N4CCCC4)n(Cc4ccccc4)c3C[C@H]2CN1C(=O)c1ccccc1
LABEL_VALUE: 0

MOLECULE: O=C1O[C@H](c2ccccc2)[C@H](c2ccccc2)N2[C@H]1[C@@H](C(=O)N1CCCCCCC1)[C@]1(C(=O)Nc3ccccc31)[C@H]2c1ccc(O)cc1
LABEL_VALUE: 1

MOLECULE: COCCOC(=O)N1C(=O)[C@@]2(c3cc(C#CCCO)ccc31)[C@H](C(=O)NC[C@H](O)c1ccccc1)[C@H]1C(=O)O[C@H](c3ccccc3)[C@H](c3ccccc3)N1[C@@H]2c1ccccc1OCCO
LABEL_VALUE: 1

MOLECULE: O=C1C2C=CC(C(O)c3ccccn3)N(Nc3ccccc3)C2C(=O)N1c1ccccc1 (stereo not drawn)
LABEL_VALUE: 0

MOLECULE: CCCCCCC#C[Si](O[C@H](c1ccccc1)c1cn(Cc2cccc(Cl)c2)nn1)(C(C)C)C(C)C
LABEL_VALUE: 1
